Cited source for all entries: patent US10428080B2

# MEASURED ON: IKKε (Homo sapiens, UniProt Q14164)
# EXPERIMENT DESCRIPTION: IKKe Biochemical Assay
# ASSAY CONDITIONS: read-out: IKKε IC50
Structures can show the parent of a compound that is named as a salt.
Kindly state IC50 for each of the entries shown.

// input: 7 molecules below; output: IC50 for each
1. COc1cc(C(=O)N(C)C2CC2)ccc1-c1cc2nccc(-c3ccc(OC4CCOCC4)c(C#N)c3)c2o1
2. CN(C)C(=O)c1ccc(-c2cc3nccc(-c4ccc(OC5CCOC(C)(C)C5)c(C#N)c4)c3o2)cc1 (stereo not drawn)
3. COc1cc(C(=O)N[C@@H]2CCNC[C@@H]2F)ccc1-c1cc2nccc(-c3cc(F)c(NC4CCOCC4)c(C#N)c3)c2o1 (single isomer, unassigned) [Compound 253, hydrochloride]
4. CN(C)C(=O)c1ccc(-c2cc3nccc(-c4ccc(Oc5cccnc5)c(C#N)c4)c3o2)cc1
5. COc1cc(C(=O)N(C)C)ccc1-c1cc2nccc(-c3ccc(OC4CCOC5(CC5)C4)c(C#N)c3)c2o1 (stereo not drawn)
6. COc1cc(C(=O)NC2CCOCC2F)ccc1-c1cc2nccc(-c3ccc(NC4CCOCC4)c(C#N)c3)c2o1 (stereo not drawn)
7. COc1cc(C(=O)NC2CCOCC2O)ccc1-c1cc2nccc(-c3ccc(OC4CCOCC4)c(C#N)c3)c2o1 (stereo not drawn)

Return:
< 100 nM
100 to 1000 nM
< 100 nM
100 to 1000 nM
< 100 nM
< 100 nM
< 100 nM

// input: 4 molecules below; output: IC50 for each
1. COc1cc(-c2cc3nccc(-c4ccc(OC5CCOCC5)c(C#N)c4)c3o2)ccc1C(=O)N(C)C
2. COc1cc(C(=O)N(C)C)ccc1-c1cc2nccc(-c3cc(C#N)c(NC4CCOCC4)c(C4CC4)c3)c2o1
3. N#Cc1cc(-c2ccnc3cc(-c4ccc(C(=O)N[C@H]5CNCC[C@@H]5F)cc4)oc23)ccc1OC1CCOCC1
4. CN(C)C(=O)c1ccc(-c2cc3nccc(-c4cc(F)c(OC5CCOCC5)c(C#N)c4)c3o2)nc1 [Compound 245, hydrochloride]

Return:
< 100 nM
> 5000 nM
< 100 nM
100 to 1000 nM

----------
# MEASURED ON: IKKε (Homo sapiens, UniProt Q14164)
# Sequence (Q14164 1-716): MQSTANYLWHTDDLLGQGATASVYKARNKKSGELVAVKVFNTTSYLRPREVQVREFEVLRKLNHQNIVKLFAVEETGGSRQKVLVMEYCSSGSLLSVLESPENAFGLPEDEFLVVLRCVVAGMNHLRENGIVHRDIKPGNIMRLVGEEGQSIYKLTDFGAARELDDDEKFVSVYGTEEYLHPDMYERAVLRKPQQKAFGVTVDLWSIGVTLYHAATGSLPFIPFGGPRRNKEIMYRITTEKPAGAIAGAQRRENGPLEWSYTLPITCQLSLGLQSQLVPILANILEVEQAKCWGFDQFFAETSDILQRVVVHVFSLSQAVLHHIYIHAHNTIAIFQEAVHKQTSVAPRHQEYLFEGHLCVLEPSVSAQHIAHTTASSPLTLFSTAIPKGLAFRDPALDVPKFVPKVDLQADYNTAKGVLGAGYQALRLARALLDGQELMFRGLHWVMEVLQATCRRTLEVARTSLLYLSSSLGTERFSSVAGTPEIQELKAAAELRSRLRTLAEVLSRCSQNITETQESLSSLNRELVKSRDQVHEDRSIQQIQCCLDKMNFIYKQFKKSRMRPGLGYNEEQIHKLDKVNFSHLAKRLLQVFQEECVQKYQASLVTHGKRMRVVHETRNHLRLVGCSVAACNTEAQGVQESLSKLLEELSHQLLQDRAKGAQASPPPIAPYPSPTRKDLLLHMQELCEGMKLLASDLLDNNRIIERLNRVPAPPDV
# EXPERIMENT DESCRIPTION: IKKe Biochemical Assay
# ASSAY CONDITIONS: read-out: IKKε IC50
pIC50: −log10 of the molar value.
MEASURED QUANTITY: pIC50

Here's what some known entries look like.
COc1cc(C(=O)N(C)C)ccc1-c1cc2nccc(-c3ccc(NC4CC(C)(C)OC(C)(C)C4)c(C#N)c3)c2o1
6.00 to 7.00
COc1cc(C(=O)NC2C3COCC32)ncc1-c1cc2nccc(-c3ccc(N4CC[C@H](F)C4)c(C#N)c3)c2o1 (stereo partly drawn)
> 7.00

Enquiry: Query pIC50 on IKKε (Homo sapiens, UniProt Q14164) for `COc1cc(C(=O)N(C)C)ccc1-c1cc2nccc(-c3ccc(OCC4CCNCC4)c(C#N)c3)c2o1`
Return: > 7.00

----------
# MEASURED ON: UniProt:Q9UHD2
# EXPERIMENT DESCRIPTION: TBK Biochemical Assay
# ASSAY CONDITIONS: read-out: TBK1 IC50
MEASURED QUANTITY: IC50

Here's what some known entries look like.
COc1cc(C(=O)N(C)C)cnc1-c1cc2ncc(OC)c(-c3ccc(NC4CCOCC4)c(C#N)n3)c2o1
1000 to 5000 nM
COc1cc(C(=O)N(C)C)ccc1-c1cc2nccc(-c3ccc(N4CCC(F)C4)c(C#N)c3)c2o1 (stereo not drawn)
< 100 nM

# input for lookup
Enquiry: If you can, please state the reported IC50 value of `CN(C)C(=O)c1ccc(-c2cc3nccc(-c4ccc(OC5CCOCC5)c(C#N)c4)c3o2)nc1` .
Return: < 100 nM

----------
Kindly state IC50 for each of the entries shown.
# MEASURED ON: IKKε (Homo sapiens)
# EXPERIMENT DESCRIPTION: IKKe Biochemical Assay
# ASSAY CONDITIONS: read-out: IKKε IC50
Where a name gives a salt, the structure may show the parent alone.

COc1cc(C(=O)NC2CCC(O)C2)ccc1-c1cc2nccc(-c3ccc(OC4CCOCC4)c(C#N)c3)c2o1 (stereo not shown)
< 100 nM
COc1cc(C(=O)N(C)C)ccc1-c1cc2nccc(-c3ccc(OC4CCN(C)C4)c(C#N)c3)c2o1 (stereo not shown)
< 100 nM
COc1cc(C(=O)NCC(C)(C)CN(C)C)ccc1-c1cc2nccc(-c3ccc(NC4CCOCC4)c(C#N)c3)c2o1
< 100 nM
COc1cc(C(=O)N2CCC(CO)CC2)ccc1-c1cc2nccc(-c3ccc(OC4CCOCC4)c(C#N)c3)c2o1
< 100 nM
COc1cc(C(=O)N2CCCCC2)ccc1-c1cc2nccc(-c3ccc(OC4CCOCC4)c(C#N)c3)c2o1
< 100 nM

// input: 3 molecules below; output: IC50 for each
1. CN(C)C(=O)c1ccc(-c2cc3nccc(-c4ccc(NC5CCOCC5)c(C#N)c4)c3o2)c(F)c1
2. COc1cc(C(=O)NCC2CCCCC2(F)F)ccc1-c1cc2nccc(-c3ccc(NC4CCOCC4)c(C#N)c3)c2o1 (stereo not shown)
3. COc1cc(C(=O)N2CC(S(C)(=O)=O)C2)ccc1-c1cc2nccc(-c3ccc(OC4CCOCC4)c(C#N)c3)c2o1

Return:
100 to 1000 nM
100 to 1000 nM
< 100 nM

// input: 3 molecules below; output: IC50 for each
1. COc1cc(C(=O)N(C)C)ccc1-c1cc2nccc(-c3ccc(NC4CCNC4)c(C#N)c3)c2o1 (stereo not shown)
2. COc1cc(C(=O)N2CC(O)C2)ccc1-c1cc2nccc(-c3ccc(OC4CCOCC4)c(C#N)c3)c2o1
3. COc1cc(C(=O)N(C)C)cnc1-c1cc2nccc(-c3ccc(NC4CCOCC4)c(C#N)n3)c2o1 [Compound 315, hydrochloride]

Return:
["< 100 nM", "< 100 nM", "< 100 nM"]

----------
Kindly state IC50 for each of the entries shown.
# MEASURED ON: TBK1 (Homo sapiens, UniProt Q9UHD2)
# Sequence (Q9UHD2 whole entry, species assumed): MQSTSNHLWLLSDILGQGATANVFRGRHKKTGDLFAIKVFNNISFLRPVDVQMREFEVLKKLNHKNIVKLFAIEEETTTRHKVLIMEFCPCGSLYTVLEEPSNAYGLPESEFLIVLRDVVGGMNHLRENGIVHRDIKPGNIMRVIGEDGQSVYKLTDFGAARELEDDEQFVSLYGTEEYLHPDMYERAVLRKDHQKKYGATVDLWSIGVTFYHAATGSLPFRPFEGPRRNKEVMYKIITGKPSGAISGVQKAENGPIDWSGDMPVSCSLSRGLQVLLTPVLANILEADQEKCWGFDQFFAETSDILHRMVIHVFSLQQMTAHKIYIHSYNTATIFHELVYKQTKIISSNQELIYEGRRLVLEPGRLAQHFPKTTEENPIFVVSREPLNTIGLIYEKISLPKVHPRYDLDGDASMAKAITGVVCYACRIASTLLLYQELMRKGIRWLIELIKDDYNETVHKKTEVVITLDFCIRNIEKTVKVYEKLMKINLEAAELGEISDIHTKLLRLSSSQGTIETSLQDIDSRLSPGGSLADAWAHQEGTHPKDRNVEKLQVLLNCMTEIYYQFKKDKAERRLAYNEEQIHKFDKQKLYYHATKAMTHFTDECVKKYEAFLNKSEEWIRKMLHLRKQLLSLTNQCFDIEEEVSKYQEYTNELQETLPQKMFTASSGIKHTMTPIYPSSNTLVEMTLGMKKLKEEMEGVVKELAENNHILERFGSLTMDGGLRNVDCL
# EXPERIMENT DESCRIPTION: TBK Biochemical Assay
# ASSAY CONDITIONS: read-out: TBK1 IC50

Here's what some known entries look like.
COc1cc(C(=O)NC2C3COCC32)cnc1-c1cc2nccc(-c3ccc(N4CC[C@H](F)C4)c(C#N)c3)c2o1 (stereo partly drawn) [Compound 467]
< 100 nM
COc1cc(C(=O)N2C[C@H]3C[C@@H]2CN3C)ccc1-c1cc2nccc(-c3ccc(OC4CCOCC4)c(C#N)c3)c2o1 (stereo in doubt)
< 100 nM
COc1cc(C(=O)N(C)C)ccc1-c1cc2nccc(-c3ccc(O[C@H]4CCCNC4)c(C#N)c3)c2o1
< 100 nM
CN(C)C(=O)c1ccc(-c2cc3nccc(-c4ccc(OC5(C)CCOCC5)c(C#N)c4)c3o2)cc1
100 to 1000 nM
COc1cc(C(=O)N(C)C)ccc1-c1cc2ncc(F)c(-c3ccc(OC4CCOCC4)c(C#N)c3)c2o1
< 100 nM

// input: 3 compounds below; output: IC50 for each
1. COc1cc(C(=O)N2CCCCN2C)cnc1-c1cc2nccc(-c3ccc(OC4CCOCC4)c(C#N)c3)c2o1
2. COc1cc(C(=O)N(C)CCO)ccc1-c1cc2ncc(Cl)c(-c3ccc(OC4CCOCC4)c(C#N)c3)c2o1
3. CN(C)C(=O)c1ccc(-c2cc3nccc(-c4cc(F)c(NC5CCOCC5)c(C#N)c4)c3o2)nc1

Return:
["< 100 nM", "100 to 1000 nM", "100 to 1000 nM"]

Enquiry: If you can, please state the reported IC50 value of `COc1cc(C(=O)N(C)CCO)cnc1-c1cc2ncc(C)c(-c3ccc(OC4CCOCC4)c(C#N)c3)c2o1` .
Return: 1000 to 5000 nM
